// reported inhibition for each item listed
- SYSTEM_TESTED: Sigma non-opioid intracellular receptor 1 (Homo sapiens)
- CONDITION_INFO: Compound concentration 10 µM
- Description: PDSP Primary Binding target: SIGMAR1 - Compounds are tested at 10 uM concentration, plate are incubated at room temperature in the dark for 90 minutes. Reaction are stopped by vacuum filtration onto 0.3% polyethyleneimine soaked filter mats using Filtermate harvester. Scintilation cocktail is then melted onto microwave-dried filters on a hot plate and the radio activity is counted in Microbia counter.
The figure you give is taken to be in %; do not add the unit.

GET /value?item= Oc1ccc2c3c1O[C@H]1c4[nH]c5c(c4C[C@@]4(O)[C@@H](C2)N(CC2CC2)CC[C@]314)C[C@@]1(O)[C@H]2Cc3ccc(O)c4c3[C@@]1(CCN2CC1CC1)[C@H]5O4 &field=inhibition returns 9.49

GET /value?item= COc1ccc(S(=O)(=O)c2cc(OC)ccc2S(=O)(=O)c2ccc([C@H](C)NS(C)(=O)=O)cc2)cc1 &field=inhibition returns 23.1

====

- SYSTEM_TESTED: Histamine H1 receptor (Homo sapiens) (UniProt P35367)
- Sequence (P35367 whole entry): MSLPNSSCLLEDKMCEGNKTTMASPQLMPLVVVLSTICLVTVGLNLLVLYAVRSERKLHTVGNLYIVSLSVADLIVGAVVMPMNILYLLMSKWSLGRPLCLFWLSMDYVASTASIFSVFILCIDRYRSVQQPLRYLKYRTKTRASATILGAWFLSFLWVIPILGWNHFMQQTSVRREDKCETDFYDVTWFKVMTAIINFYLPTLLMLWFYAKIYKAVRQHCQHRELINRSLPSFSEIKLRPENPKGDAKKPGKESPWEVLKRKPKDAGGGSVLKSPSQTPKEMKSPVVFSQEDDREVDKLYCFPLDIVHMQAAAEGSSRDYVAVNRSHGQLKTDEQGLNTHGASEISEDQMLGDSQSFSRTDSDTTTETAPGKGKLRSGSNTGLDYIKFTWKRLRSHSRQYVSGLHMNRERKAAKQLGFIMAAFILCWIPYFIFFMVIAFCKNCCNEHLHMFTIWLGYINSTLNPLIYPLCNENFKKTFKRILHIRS
- CONDITION_INFO: Compound concentration 10 µM
- Description: PDSP Primary Binding target: HRH1 - Compounds are tested at 10 uM concentration, plate are incubated at room temperature in the dark for 90 minutes. Reaction are stopped by vacuum filtration onto 0.3% polyethyleneimine soaked filter mats using Filtermate harvester. Scintilation cocktail is then melted onto microwave-dried filters on a hot plate and the radio activity is counted in Microbia counter.
Entry flag: condition met if inhibition reaches 20%; condition not met if it does not.

Below, 8 molecules whose answers are already recorded.
{"MOLECULE": "CCc1nn(CCCN2CCN(c3cccc(Cl)c3)CC2)c(=O)n1CCOc1ccccc1", "SYSTEM_TESTED": "Histamine H1 receptor (Homo sapiens) (UniProt P35367)", "CLASS_LABEL": "condition met"}
{"MOLECULE": "Cc1cc(C)cc(C(=O)N(C)[C@H](Cc2ccc(-c3ccccc3)cc2)C(=O)N[C@@H](Cc2c[nH]c3ccccc23)C(=O)O)c1", "SYSTEM_TESTED": "Histamine H1 receptor (Homo sapiens) (UniProt P35367)", "CLASS_LABEL": "condition not met"}
{"MOLECULE": "COc1cccc([C@H](O)C2CCN(CCc3ccc(F)cc3)CC2)c1OC", "SYSTEM_TESTED": "Histamine H1 receptor (Homo sapiens) (UniProt P35367)", "CLASS_LABEL": "condition met"}
{"MOLECULE": "OC1(c2ccc(Cl)cc2)CCN(Cc2c[nH]c3ccccc23)CC1", "SYSTEM_TESTED": "Histamine H1 receptor (Homo sapiens) (UniProt P35367)", "CLASS_LABEL": "condition met"}
{"MOLECULE": "COC(=O)C1=C(C)NC(C)=C(C(=O)OCCCN2CCC(c3ccccc3)(c3ccccc3)CC2)[C@H]1c1cccc([N+](=O)[O-])c1", "SYSTEM_TESTED": "Histamine H1 receptor (Homo sapiens) (UniProt P35367)", "CLASS_LABEL": "condition met"}
{"MOLECULE": "C[N+]1(C)[C@@H]2C[C@@H](OC(=O)C(O)(c3cccs3)c3cccs3)C[C@H]1[C@@H]1O[C@@H]12", "SYSTEM_TESTED": "Histamine H1 receptor (Homo sapiens) (UniProt P35367)", "CLASS_LABEL": "condition met"}
{"MOLECULE": "N#Cc1c(N)nc(SCc2csc(-c3ccc(Cl)cc3)n2)c(C#N)c1-c1ccc(OCCO)cc1", "SYSTEM_TESTED": "Histamine H1 receptor (Homo sapiens) (UniProt P35367)", "CLASS_LABEL": "condition not met"}
{"MOLECULE": "O=C1O[C@]2(CC[C@H](C(=O)Nc3ccn(-c4ccccc4F)n3)CC2)c2cnccc21", "SYSTEM_TESTED": "Histamine H1 receptor (Homo sapiens) (UniProt P35367)", "CLASS_LABEL": "condition not met"}

Qu. Does OC[C@H]1O[C@@H](n2cnc3c(NC4CCCC4)ncnc32)[C@H](O)[C@@H]1O have a reported inhibition of at least 20%?
Ans. condition not met

Qu. Does O=C(O)c1n[nH]c2c1C[C@H]1C[C@@H]21 have a reported inhibition of at least 20%?
Ans. condition not met

Qu. Does Oc1ccc2c3c1O[C@H]1c4[nH]c5c(c4C[C@@]4(O)[C@@H](C2)N(CC2CC2)CC[C@]314)C[C@@]1(O)[C@H]2Cc3ccc(O)c4c3[C@@]1(CCN2CC1CC1)[C@H]5O4 have a reported inhibition of at least 20%?
Ans. condition not met

Qu. Does O=C(Nc1ccc(Cl)cc1)Nc1cccc(-c2cccc(N3CCCC3)n2)c1 have a reported inhibition of at least 20%?
Ans. condition not met

Qu. Does CCCCN(CCCC)C(=O)CN1C[C@@H](c2ccc3c(c2)OCO3)[C@H](C(=O)O)[C@H]1c1ccc(OC)cc1 have a reported inhibition of at least 20%?
Ans. condition not met

Qu. Does CC(C)NCC(O)c1ccc(N)c(C#N)c1 (stereo not drawn) have a reported inhibition of at least 20%?
Ans. condition met

Qu. Does C[C@H](Cc1cc2c(c(C(N)=O)c1)N(CCCO)CC2)NCCOc1ccccc1OCC(F)(F)F have a reported inhibition of at least 20%?
Ans. condition met

Qu. Does C=CCN1C[C@H](C)N([C@H](c2ccc(C(=O)N(CC)CC)cc2)c2cccc(O)c2)C[C@H]1C have a reported inhibition of at least 20%?
Ans. condition not met

Qu. Does CCc1nn2c(C)cc(C)nc2c1Cc1ccc(-c2nnc(C3CCNCC3)o2)cc1 have a reported inhibition of at least 20%?
Ans. condition not met

Qu. Does CCc1cc2c(cc1CC)CC(NC[C@H](O)c1ccc(O)c3[nH]c(=O)ccc13)C2 have a reported inhibition of at least 20%?
Ans. condition met
